Entry source: PubChem BioAssay (NCI)

# assay-overview: NCI Yeast Anticancer Drug Screen. Data for the cln2 rad14 strain (AID 165);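 further: 0% = growth equal to vehicle treated cultures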
# study-conditions: S. cerevisiae cln2 rad14 strain, at 50.0 µM (retest, dose inferred, filed as 5.0), active compounds read high
About 79,000 compounds went through this panel and 15% of them were active in at least one assay; those are over-represented in the sample as a whole.
Use 90% as the dividing line for growth inhibition, with the line itself on the true (1) side and lower values as false (0).

compound: CCN(CC)CCSCCCNc1cc(C)nc2c1ccc1c2ccc2c(NCCCSCCN(CC)CC)cc(C)nc21
classification: false (0)

**Query** Hello, I need to know if CC(C)Cc1ccc(C(C)/C=C2\CCC(CN3CCCCC3)C2=O)cc1 (stereo not given) has measured growth inhibition not below 90%. Thanks!
**Result** true (1)

**Query** Hello, I need to know if CCOC(=O)N1CCN(CCCCCCOc2c(Cl)cc(Cl)cc2Cl)CC1 has measured growth inhibition not below 90%. Thanks!
**Result** true (1)

**Query** Hello, I need to know if c1ccc([P+](Cc2ccc(C[P+](c3ccccc3)(c3ccccc3)c3ccccc3)s2)(c2ccccc2)c2ccccc2)cc1 has measured growth inhibition not below 90%. Thanks!
**Result** false (0)

###

Catalogue of growth inhibition readings, one per entry.
# assay-overview: NCI Yeast Anticancer Drug Screen. Data for the mec2-1 strain (AID 157)
# study-conditions: S. cerevisiae mec2-1 strain, at 50.0 µM (retest, dose inferred, filed as 5.0), active compounds read high
About 79,000 compounds went through this panel and 15% of them were active in at least one assay; those are over-represented in the sample as a whole.
Kindly provide the numeric value in % only, without the unit symbol.

**Query** // fetch growth inhibition given entry C=C(CN(C)C)C(=O)c1ccccc1
**Result** 41

**Query** // fetch growth inhibition given entry O=C1C=CC(=O)C2C1Cc1ccccc1C2c1ccccc1 (configuration not stated)
**Result** 98

**Query** // fetch growth inhibition given entry Oc1cc(Br)ccc1/C=N/Nc1ccccn1
**Result** 60

**Query** // fetch growth inhibition given entry COc1ccc(OC)c(/C=C/NC=O)c1
**Result** -7

###

# assay-overview: NCI Yeast Anticancer Drug Screen. Data for the mec2-1 strain (AID 157)
# study-conditions: S. cerevisiae mec2-1 strain, at 50.0 µM
This is part of a sample that, as a whole, favours compounds with a hit. Of some 79,000 tested, about 15% had one in any assay. The source made the active and inactive calls. Cut-off read from the data, not from the text of the source: active = growth inhibition above about 70%; inactive = the rest.
Allowed answers: label 1 for active, label 0 for inactive

molecule: NC1=NCN(C2OC(COCc3ccccc3)C(OCc3ccccc3)C2OCc2ccccc2)C(=O)N1 (stereo unspecified)
classification: label 0

molecule: CC(C)OC(=O)Oc1c(Cl)c(Cl)c(Cl)c(Cl)c1Cl
classification: label 0

molecule: CC(=O)N(C1=CC(=O)c2ccccc2C1=O)c1ccc(C)cc1
classification: label 0

molecule: COc1ccc(C2=NN(c3ccccc3)C[N+](c3ccc(C)cc3)=N2)cc1
classification: label 1

molecule: S=C(NN1CCOCC1)SSC(=S)NN1CCOCC1
classification: label 1

Next, consider the following molecule.
**Query** Please state the recorded outcome for this molecule: Nc1ccc2c(c1)NCCN2
**Result** label 0

###

# assay-overview: NCI Yeast Anticancer Drug Screen. Data for the bub3 strain (AID 167)
# study-conditions: S. cerevisiae bub3 mutant strain, at 50.0 µM, active compounds read high
# Description: Growth inhibition of yeast strains with defined genetic alterations is measured as a screen for potential anti-cancer activity. Selected strains with alterations in DNA damage repair or cell cycle control were exposed to compounds and growth inhibition was measured relative to vehicle treated controls. The strain used in this assay is bub3
This is part of a sample that, as a whole, favours compounds with a hit. Of some 79,000 tested, about 15% had one in any assay.
Use 70% as the dividing line for growth inhibition, with the line itself on the Fulfilled side and lower values as Not fulfilled.

Please review the following examples before continuing.
molecule: Cc1ccnc(-c2cc(C)ccn2)c1
classification: Not fulfilled

molecule: O=C(OCc1ccccc1CN1CCOCC1)c1ccc(Br)cc1
classification: Fulfilled

molecule: CCCCCCCCCCCCCCCC(=O)NCC[N+](CC)(CC)Cc1ccc(C[N+](CC)(CC)CCNC(=O)CCCCCCCCCCCCCCC)cc1
classification: Fulfilled

molecule: CN(C)C(C)(C)CCNc1c2ccccc2nc2cccc([N+](=O)[O-])c12
classification: Fulfilled

**Query** Hello, I need to know if COc1ccc(/C=C2\SC(=S)N(/C=C(/C#N)C(=O)c3ccc4ccccc4c3)C2=O)cc1OC has measured growth inhibition not below 70%. Thanks!
**Result** Fulfilled

**Query** Hello, I need to know if O=C(/N=C1\N=Nc2nc(C(C(=O)c3cccs3)c3nc4n(c3O)/C(=N/C(=O)Nc3ccc(Cl)cc3)N=N4)c(O)n21)Nc1ccc(Cl)cc1 (stereo not drawn) has measured growth inhibition not below 70%. Thanks!
**Result** Not fulfilled

**Query** Hello, I need to know if C/C(=N/O)C1CC(CCC2([N+](=O)[O-])CCC(C)(O)C(/C(C)=N/O)C2)([N+](=O)[O-])CCC1(C)O (stereo not drawn) has measured growth inhibition not below 70%. Thanks!
**Result** Fulfilled

**Query** Hello, I need to know if CCOc1ccc2nc(Cl)sc2c1 has measured growth inhibition not below 70%. Thanks!
**Result** Fulfilled

**Query** Hello, I need to know if C[C@]12C[C@H](c3ccccc3)Nc3ccccc3N1C(c1ccccc1)=NO2 has measured growth inhibition not below 70%. Thanks!
**Result** Not fulfilled

**Query** Hello, I need to know if CCNc1ncnc2c1ncn2Cc1ccco1 has measured growth inhibition not below 70%. Thanks!
**Result** Not fulfilled

###

# assay-overview: NCI Yeast Anticancer Drug Screen. Data for the sgs1 mgt1 strain (AID 161);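 further: 0% = growth of cultures given vehicle only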
# study-conditions: S. cerevisiae sgs1 mgt1 strain, at 5.0 µM (retest, dose inferred, filed as 0.5)
Compounds without any hit were thinned out: in the full panel of roughly 79,000, 15% have a hit. Active and inactive are the calls of the source. No stated cut-off is given here; in the data, active means growth inhibition above about 70%; inactive means the rest.
Allowed answers: active, inactive

Please review the following examples before continuing.
compound: COC(=O)C(Sc1ccc(Cl)cc1)C1SC(=S)N(C)C1=O (stereo unspecified)
classification: inactive

compound: O=C1CSC(=Nc2ccc(F)cc2F)N1Cc1cccs1
classification: inactive

compound: N#Cc1c(-c2ccc(Cl)c(Cl)c2)c(-c2ccc(Cl)c(Cl)c2)nn(CCO)c1=O
classification: inactive

compound: Cc1c2ccccc2cc2c1ccc1cccc(F)c12
classification: inactive

compound: COc1cccc2c1C(=O)c1c(O)c3c(c(O)c1C2=O)CC(O)(C(C)=O)CC3OC1OC(COC(C)=O)C(OC(C)=O)C(OC(C)=O)C1OC(C)=O (stereo unspecified)
classification: inactive

**Query** Please state the recorded outcome for this compound: Cc1cc(Cl)c2c(c1)C(=O)/C(=C/c1ccc(Cl)cc1)O2
**Result** inactive

**Query** Please state the recorded outcome for this compound: CC1=CCC[C@@H]2C1(C)CCC(C)[C@@]2(C)CC1=CC(=O)C=CC1=O (stereo partly specified)
**Result** inactive

**Query** Please state the recorded outcome for this compound: CCC(C)(C[NH-])C[NH-].[Cl][Pt+2][Cl]
**Result** inactive

**Query** Please state the recorded outcome for this compound: O=[N+]([O-])/C(Br)=C\c1ccc([N+](=O)[O-])cc1
**Result** inactive

**Query** Please state the recorded outcome for this compound: CC(C)(C)C1=CC(N2CCCCC2)(C(C)(C)C)C=C(C(C)(C)C)C1=O
**Result** inactive

**Query** Please state the recorded outcome for this compound: O=C(Nc1ccccc1[N+](=O)[O-])/C(=N/Nc1cccc(Cl)c1)c1c(O)c2ccccc2oc1=O
**Result** inactive

**Query** Please state the recorded outcome for this compound: FC(F)(F)c1cccc(COCCN2CCN(Cc3cccc(C(F)(F)F)c3)CC2)c1
**Result** inactive

**Query** Please state the recorded outcome for this compound: O=S(=O)(O)CC[S][Sn]([S]CCS(=O)(=O)O)([c]1ccccc1)[c]1ccccc1 (tested in a mixture with another compound)
**Result** active

###

# assay-overview: NCI Yeast Anticancer Drug Screen. Data for the mlh1 rad18 strain (AID 175)
# study-conditions: S. cerevisiae mlh1 rad18 strain growth inhibition; at 50.0 µM (retest, dose inferred, filed as 5.0); active compounds read high
This is part of a sample that, as a whole, favours compounds with a hit. Of some 79,000 tested, about 15% had one in any assay. The source made the active and inactive calls. Rule as the data show it: active = growth inhibition above about 70%; inactive = the rest.
observable: growth inhibition

Example results:
molecule: CCCCCCCCCCCCNCc1ccc(O)c(OC)c1
recorded-result: 97% (active)
//
molecule: O=C(Nn1c(=O)c(=O)oc2ccccc21)C(F)(F)F
recorded-result: 97% (active)
//
molecule: CC(CN(C)C)C(/C=C/c1ccc(F)cc1)=N\Nc1ccccc1 (stereo unspecified)
recorded-result: 29% (inactive)
//
molecule: O=C(O)CCCCCCCCCCOc1ccc(Cl)cc1Cl
recorded-result: -1% (inactive)

**Query** // fetch growth inhibition given entry CCCN(CCC)CC(O)c1ccc2ccc3ccc(Cl)cc3c2c1 (stereo unspecified)
**Result** 99% (active)

**Query** // fetch growth inhibition given entry CCN1/C(=C\c2cc(C)nc(-c3ccccc3)[n+]2C)C=Cc2ccccc21
**Result** 99% (active)

**Query** // fetch growth inhibition given entry C1CCC2[N-]CC3CCCCC3[N-]CC3CCCCC3[N-]CC3CCCCC3[N-]CC2C1.[Cl][Fe]([Cl])([Cl])[Cl].[Fe+6] (stereo unspecified)
**Result** 98% (active)

**Query** // fetch growth inhibition given entry Cc1ccc(C)c(NC(=O)CCC(=O)CC(=O)c2ccncc2)c1
**Result** -1% (inactive)

**Query** // fetch growth inhibition given entry OC(CC(O)(C(F)(F)Cl)C(F)(F)Cl)c1ccccc1 (stereo unspecified)
**Result** 59% (inactive)

**Query** // fetch growth inhibition given entry CN(C)C1=NC(N(C)C)=C2C=CC=C12
**Result** 71% (active)

**Query** // fetch growth inhibition given entry Cc1c(N)ccc(O)c1C
**Result** 35% (inactive)
